biological target: T1, c-erbB-2 ECD with a Ser-Gly-His6 C-terminal fusion (UniProt P04626 23-652); test: SPR BIAcore
T1 construct: extracellular domain; Expressed from CHO cells, IMAC purified; coupled to a CM5 chip, coated on plates, or biotinylated with NHS-LC-biotin; also called c-erbB-2 extracellular domain; biotinylated c-erbB-2 ECD
Form field: Kd (parent)/Kd (mut) (one value per entry).
Measured metric: Kd (parent)/Kd (mut)

1) C6-12L1 (scFv, C6L1 with the VL CDR3 of C6ML3-12) scFv: QVQLLQSGAELKKPGESLKISCKGSGYSFTSYWIAWVRQMPGKGLEYMGLIYPGDSDTKYSPSFQGQVTISVDKSVSTAYLQWSSLKPSDSAVYFCARHDVGYCSSSNCAKWPEYFQHWGQGTLVTVSSGGGGSGGGGSGGGGSQSVLTQPPSVSGAPGQWVTISCSGSSSNIGNNYVSWYQQLPGTAPKLLIYDNNKRPSGVPDRFSGSQSGTSASLAISGLRSEDEADYYCAAWDYSRSGWVFGGGTKLTVLG = 8.4
2) C6-B1D1 (scFv, Combined B and D library mutations on C6ML3-9) scFv: QVQLLQSGAELKKPGESLKISCKGSGYSFTSYWIAWVRQMPGKGLEYMGLIYPGDSDTKYSPSFQGQVTISVDKSVSTAYLQWSSLKPSDSAVYFCARHDVGYCTDRTCAKWPEWLHVWGQGTLVTVSSGGGGSGGGGSGGGGSQSVLTQPPSVSAAPGQKVTISCSGSSSNIGNNYVSWYQQLPGTAPKLLIYGHTNRPAGVPDRFSGSKSGTSASLAISGFRSEDEADYYCASWDYTLSGWVFGGGTKLTVLG = 3.8
